Test system: Sam68 (KHDRBS1)
Assay: Sam68 small-molecule binders, primary screen, biochemical, small-molecule microarray, 635 nm fluorescence (AID 1125);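 note: score merges 667 nm channel intensity with signal to noise over triplicate slides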
Conditions: small-molecule microarray binding, higher = more signal
Outcome: MET for composite z-score of at least 1; NOT MET for anything lower.

Molecule: COCCOC(=O)N1C(=O)[C@@]2(c3cc(C#CC4=CCCCC4)ccc31)[C@H](c1ccccc1OCCO)N1[C@H](c3ccccc3)[C@H](c3ccccc3)OC(=O)[C@H]1[C@@H]2C(=O)Nc1nc2ccccc2s1
Target Or Test System: Sam68 (KHDRBS1)
Class Assignment: MET
--
Molecule: COC(=O)[C@@]1(Cc2ccc(OC)cc2)[C@H]2c3cc(C(=O)N(C)C)n(Cc4ccc(Cl)c(C(F)(F)F)c4)c3C[C@H]2CN1C(=O)c1ccccc1
Target Or Test System: Sam68 (KHDRBS1)
Class Assignment: MET
--
Molecule: CC1=C([C@H](O)CCc2ccccc2)[C@H](CO)[C@@H]2C(=O)N(C)C(=O)[C@@H]2C1
Target Or Test System: Sam68 (KHDRBS1)
Class Assignment: NOT MET
--
Molecule: O=C1C2C=CC(C(O)c3ccc(Br)cc3)N(Nc3ccccc3F)C2C(=O)N1c1ccccc1 (stereo not drawn)
Target Or Test System: Sam68 (KHDRBS1)
Class Assignment: NOT MET
--
Molecule: COc1ccccc1CN1C(=O)c2ccccc2[C@@]2(Cc3ccccc3N(CC(F)(F)F)C2=O)[C@@H]1c1ccc(CO)cc1
Target Or Test System: Sam68 (KHDRBS1)
Class Assignment: NOT MET

Q. hey, is composite z-score for this one >= 1? O=C1C2C=CC(C(O)c3ccc(F)cc3)N(n3cnnc3)C2C(=O)N1Cc1ccccc1 (stereo not drawn)
A. NOT MET

Q. hey, is composite z-score for this one >= 1? COCCCNC(=O)[C@@]1(Cc2ccccc2N=[N+]=[N-])COC(c2ccc(OCCCO)cc2)=N1
A. MET

Q. hey, is composite z-score for this one >= 1? CN1C(=O)C2C=CC(C(O)C#Cc3ccccc3)N(Nc3ccccc3)C2C1=O (stereo not drawn)
A. MET

* * *

Assay: basal RPMI8226 mitochondrial membrane potential changes, profiling panel, cell-based, JC-1 fluorescence, 24 h, 100 nL compound (AID 1169); note: test concentration not given here
Settings: RPMI8226 myeloma, JC-1 mitochondrial potential fluorescence, higher = more signal
I'd be grateful if you could share measured z-score for these entries.
Give bare numbers.

# example entries with known answers
Compound: O=C1O[C@H](c2ccccc2)[C@H](c2ccccc2)N2[C@H]1[C@@H](C(=O)Nc1nc3ccccc3s1)[C@]1(C(=O)Nc3ccc(C#CC4(O)CCCCCC4)cc31)[C@H]2c1ccccc1OCCO
Assay Readout: z-score
Recorded Result: -0.951

Compound: COc1ccc(CCNC(=O)[C@@H]2c3ccccc3C(=O)N(Cc3cc(C(F)(F)F)cc(C(F)(F)F)c3)[C@H]2c2ccc(CO)cc2)cc1
Assay Readout: z-score
Recorded Result: -0.0116

Compound: [N-]=[N+]=Nc1ccccc1[C@@H]1OC(c2ccc(OCCCO)cc2)=N[C@]1(Cc1ccccc1)C(=O)NCC(O)CO (stereo not given in full)
Assay Readout: z-score
Recorded Result: -1.15

Compound: CCCCCCc1nc(-c2cc(C)c(OC)c(C)c2)c(C)c2c1[Si](C(C)C)(C(C)C)OC2
Assay Readout: z-score
Recorded Result: -0.18

Below are 8 compounds. Give each one its z-score.
1. Cc1ccc(S[C@]2(C(=O)NCCCN(C)C)CC(=O)N(C3CCCCC3)[C@@H]2c2ccc(CO)cc2)cc1
2. COCCOC(=O)N1C(=O)[C@@]2(c3cc(C#CC4=CCCCC4)ccc31)[C@H](C(=O)N1CCCCCCC1)[C@H]1C(=O)O[C@H](c3ccccc3)[C@H](c3ccccc3)N1[C@@H]2c1ccc(O)cc1
3. CCOC(=O)C[C@H]1[C@H](OC(=O)c2ccccc2-c2ccccc2)[C@@H](NC(=O)c2ccc(-c3ccccc3)cc2)c2cc(OCCCO)ccc2N1C(=O)c1ccc2ccccc2n1
4. CCOC(=O)C1=CC[C@@H](c2ccccc2C(F)(F)F)N(S(=O)(=O)c2ccc(C)cc2)[C@H]1c1ccc(C#N)cc1
5. CCOC(=O)C1CCCCN1 (stereo not given)
6. COc1ccc(C(O)C2C=CC3C(=O)N(c4ccccc4)C(=O)C3N2Nc2ccc([N+](=O)[O-])cc2)cc1 (stereo not given)
7. CCOC(=O)C1=CC[C@@H](c2ccc(OCc3ccccc3)c(OC)c2)N(S(=O)(=O)c2ccc(C)cc2)[C@H]1c1ccc(SC)cc1
8. C=CC[C@@]1(C(=O)N2CCOCC2)N=C(c2ccc(OCCCO)cc2)O[C@@H]1c1ccccc1CN=[N+]=[N-]

A.
-0.151
-0.386
0.0491
0.801
0.292
0.0302
0.419
-0.838

* * *

Molecular target: Dihydroorotate dehydrogenase (quinone), mitochondrial (Plasmodium falciparum (isolate 3D7))
Experiment: PfDHODH enzyme inhibitors, primary screen, biochemical, C-terminal His tag, absorbance 600 nm (AID 1175);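 note: recombinant parasite enzyme with a five histidine tag at its C terminus; test concentration not given here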
Settings: DCIP absorbance 600 nm, higher = more signal, called active from +8 up or from −8 down
Outcome: Yes for composite z-score of at least -0.04; No for anything lower.

Answered examples (2):
Chemical Smiles: COC(=O)CCCCCCC(=O)Nc1ccc(NC(=O)CCCC[P+](c2ccccc2)(c2ccccc2)c2ccccc2)cc1
Class Assignment: No
--
Chemical Smiles: COCCCNC(=O)[C@@]1(Sc2ccc(C)cc2)CC(=O)N(C2CCCCC2)[C@@H]1c1ccc(CO)cc1
Class Assignment: Yes

Q. hey, is composite z-score for this one >= -0.04? Cc1ccc(S[C@]2(C(=O)O)CC(=O)N(Cc3ccccc3Cl)[C@@H]2c2ccc(CO)cc2I)cc1
A. Yes

Q. hey, is composite z-score for this one >= -0.04? NCCCCCNC(=O)[C@@H]1C[C@@H]2C(=O)NCC(=O)N2[C@@H]1c1cccc(OCCO)c1
A. No

Q. hey, is composite z-score for this one >= -0.04? CCCCCCc1nc(-c2cc(C)c(OC)c(C)c2)c(C)c2c1[Si](C(C)C)(C(C)C)OC2
A. No

* * *

I'd be grateful if you could share measured z-score for these entries.
Assay: splicing luciferase reporter signal modulators, primary screen, spliceosome inhibition project, cell-based, HEK293, splice +/- reporter (AID 1101);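 note: HEK293 cells carrying a splicing-competent luciferase reporter gene; test concentration not given here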
Details: luminescence, 24 h, higher = more signal, called active from +8 up or from −8 down
Answers are plain numbers.

Compound: C=CCNC(=O)[C@@H]1[C@H]2C(=O)O[C@H](c3ccccc3)[C@H](c3ccccc3)N2[C@H](c2ccc(O)cc2)[C@@]12C(=O)N(C(=O)OCCOC)c1ccc(C#CC3(O)CCCCCC3)cc12
Recorded Result: -0.565

Compound: COc1cc2c(cc1OC)CN(C(=O)[C@@H]1[C@H]3C(=O)O[C@H](c4ccccc4)[C@H](c4ccccc4)N3[C@H](c3ccc(OCCO)cc3)[C@@]13C(=O)Nc1ccc(C#CC4(O)CCCCCC4)cc13)CC2
Recorded Result: -1.38

Compound: CC(C)N1CC=CC23O[C@@H]4C=CCOC(=O)[C@@H]4[C@H]2C(=O)N(CCCO)[C@@H]3C1=O (stereo partly specified)
Recorded Result: -3

Compound: C=C[C@@H](OC)[C@H](OC(=O)Nc1ccc(SC)cc1)c1ccc(O)c(F)c1
Recorded Result: -1.17

Compound: COC(=O)c1cn(C[C@@H](Cc2ccccc2)NC(=O)N[C@H](CO)CCc2oc(C(C)=O)c(C(=O)OC)c2C(=O)OC)nn1
Recorded Result: 0.138

Alright, here's another compound for you.
For C=CCC(OC(C)=O)[C@@H]1[C@@H](N(Cc2ccc(-c3cccc(C(F)(F)F)c3)o2)C(=O)c2ccc(C)cc2)c2cc(OCCCO)ccc2N1C(=O)c1ccc2ccccc2c1 (stereo partly specified) the compound record lists z-score as -0.619

* * *

I'd be grateful if you could share measured z-score for these entries.
Assay: A549 lung cancer cell viability effects, profiling panel, resazurin fluorescence, 24 h, PK04 Diversity Set (AID 1171); note: test concentration not given here
Conditions: higher = more signal, called active from +8 up or from −8 down
Answers are plain numbers.

Below are 3 molecules. Give each one its z-score.
1. COCCOC(=O)N1C(=O)[C@@]2(c3cc(C#CC4=CCCCC4)ccc31)[C@H](C(=O)N1CCCCCCC1)[C@H]1C(=O)O[C@H](c3ccccc3)[C@H](c3ccccc3)N1[C@@H]2c1ccc(O)cc1
2. COc1ccc([Si](C)(C)[C@H]2[C@H](CCn3cc([C@H](O)c4ccccc4)nn3)O[C@@]3(C(=O)N(Cc4ccc(N5C(=O)c6cccc7cccc5c67)cc4)c4ccccc43)[C@@H]2C)cc1
3. C=CCC(OC(C)=O)[C@@H]1[C@@H](N(Cc2cccc3ccccc23)C(=O)Cc2ccc(F)cc2)c2cc(OCCCO)ccc2N1C(=O)c1ccc2ccccc2n1 (some centres undefined)

A.
-1.09
-1.26
0.067

* * *

I'd be grateful if you could share measured z-score for these entries.
Test: inhibitors of hydroxyurea-induced Chk1 phosphorylation, primary screen, imaging, HeLa, phospho-Chk1 nuclear intensity (AID 1187); note: test concentration not given here
Conditions: hydroxyurea-induced phospho-Chk1 immunofluorescence imaging, higher = more signal
Give bare numbers.

# example entries with known answers
Compound: [N-]=[N+]=NCc1ccccc1C[C@]1(C(N)=O)N=C(c2ccc(OCCCO)cc2)O[C@H]1c1ccccc1
z-score: 0.43
--
Compound: Cc1ccc(S[C@]2(C(=O)NCC(F)(F)F)CC(=O)N(Cc3ccccc3)[C@@H]2c2ccc(CO)cc2I)cc1
z-score: 0.554
--
Compound: COCCCNC(=O)[C@]1(CCS(=O)(=O)c2ccccc2)N=C(c2ccc(OCCCO)cc2)O[C@@H]1c1ccccc1CN=[N+]=[N-]
z-score: -0.618

Below are 5 compounds. Give each one its z-score.
1. C=CCC(OC(C)=O)[C@@H]1[C@@H](N(Cc2cccc3ccccc23)C(=O)c2cccc3ccccc23)c2cc(OCCCO)ccc2N1C(=O)c1ccc(-c2ccccc2)cc1 (some centres not stated)
2. CN(C)CCCNC(=O)[C@@H]1c2ccccc2C(=O)N(Cc2ccccc2Cl)[C@H]1c1ccc(CO)cc1
3. O=C1OCC=C[C@H]2OC34C=CCN(c5ccc(Cl)cc5)C(=O)[C@H]3N(CCO)C(=O)[C@@H]4[C@@H]12 (some centres not stated)
4. CCOC(=O)C[C@H]1[C@H](OC(=O)c2cc3ccccc3oc2=O)[C@@H](NC(=O)c2ccc(-c3ccccc3)cc2)c2cc(OCCCO)ccc2N1C(=O)c1ccc2ccccc2n1
5. COC(=O)[C@@]1(Cc2ccc(OC)cc2)[C@@H]2C(=CC(=O)[C@H]2CC(=O)C(=O)N(C)C)CN1C(=O)c1ccccc1

A.
1. 0.466
2. 0.0322
3. -0.457
4. -0.583
5. -0.0503

Below are 7 compounds. Give each one its z-score.
1. COC(=O)c1nc2oc1CC[C@@H](CO)NC(=O)N(C)Cc1cnnn1C[C@H](Cc1ccccc1)NC2=O
2. C[C@]1(C(=O)NC2CC2)c2ccccc2C(=O)N(Cc2ccccc2)[C@H]1c1ccc(CO)cc1
3. O=C(N1CCCCC1)[C@@]1(CCS(=O)(=O)c2ccccc2)COC(c2ccc(OCCCO)cc2)=N1
4. CN(C)C(=O)C1N=C(c2ccc(OCCCO)cc2)N(c2ccccc2)O1 (configuration not stated)
5. O[C@@H](Cc1ccccc1)[C@@H](/C=C/C1CC1)N(CC#Cc1ccccc1)Cc1cccc(Cl)c1
6. COC(=O)[C@@]1(Cc2ccc(OC)cc2)[C@H]2c3cc(C(=O)N(C)C)n(CCO)c3C[C@H]2CN1C(=O)c1ccccc1
7. O=C1OCC=C[C@H]2OC34C=CCN(Cn5nnc6ccccc65)C(=O)[C@H]3N(CCCO)C(=O)[C@@H]4[C@@H]12 (some centres not stated)

A.
1: -0.393; 2: -0.567; 3: -0.187; 4: -0.846; 5: 0.043; 6: 0.524; 7: -0.228
